# ASSAY_SYSTEM: Adenosine receptor A2b (Homo sapiens)
# Sequence (whole entry): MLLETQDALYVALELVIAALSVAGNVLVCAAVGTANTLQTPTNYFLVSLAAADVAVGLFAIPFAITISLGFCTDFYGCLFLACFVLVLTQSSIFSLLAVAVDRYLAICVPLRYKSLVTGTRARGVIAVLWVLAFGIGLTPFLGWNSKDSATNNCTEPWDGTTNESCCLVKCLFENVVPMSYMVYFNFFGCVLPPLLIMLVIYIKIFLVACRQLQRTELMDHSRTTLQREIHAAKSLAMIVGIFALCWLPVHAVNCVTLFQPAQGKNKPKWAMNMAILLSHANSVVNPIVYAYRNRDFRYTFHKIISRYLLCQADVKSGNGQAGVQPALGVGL
# ASSAY_NAME: Inhibition at 50 uM on cAMP production induced by 50 uM 5`-(N-ethylcarboxamido)adenosine in CHO cell line transfected with human Adenosine A2B receptor cDNA
# Type: cell-based
Entry flag: Met if inhibition reaches 50%; Not met if it does not.

Past entries and their recorded results:
SMILES_STRING | ASSAY_SYSTEM | GROUP_LABEL
Nc1ccc(CC(=O)Nc2nc3ccc(Cl)cc3c3nc(-c4ccco4)nn23)cc1I | Adenosine receptor A2b (Homo sapiens) | Not met
O=C(Cc1ccc(I)cc1)Nc1nc2ccc(Cl)cc2c2nc(-c3ccco3)nn12 | Adenosine receptor A2b (Homo sapiens) | Not met
NCCCC(=O)Nc1nc2ccc(Cl)cc2c2nc(-c3ccco3)nn12 | Adenosine receptor A2b (Homo sapiens) | Met
CCCn1c(=O)n2nc(-c3ccco3)nc2c2cc(Cl)ccc21 | Adenosine receptor A2b (Homo sapiens) | Not met
CC(C)(C)C(=O)Nc1nc2ccc(Cl)cc2c2nc(-c3ccco3)nn12 | Adenosine receptor A2b (Homo sapiens) | Met
O=C(Nc1nc2ccc(Cl)cc2c2nc(-c3ccc(Br)o3)nn12)c1ccccc1 | Adenosine receptor A2b (Homo sapiens) | Not met

State whether the measured inhibition reaches 50%, counting equality as reaching it, for "O=C(Cc1ccccc1)Nc1nc2ccc(Cl)cc2c2nc(-c3ccco3)nn12"
Met

Textbook exercise: given the entry "Clc1ccc2nc(NCc3ccccc3)n3nc(-c4ccco4)nc3c2c1" , state whether its inhibition is greater than or equal to 50%.
Not met

Form field: inhibition at least 50%? Entry: "CC(C)(C)OC(=O)NCCCC(=O)Nc1nc2ccc(Cl)cc2c2nc(-c3ccco3)nn12"
Not met

Could you verify whether the entry "Nc1nc2ccc(Cl)cc2c2nc(-c3ccco3)nn12" shows inhibition of no less than 50%?
Met
